- Tested on: fruit fly (Drosophila melanogaster)
- PROTOCOL CONDITIONS: 25 μg/cm2, 48 h
OBSERVATION TYPE: FF 25: % mortality at 25 μg/cm2 against fruit fly in dietary tests

The following compounds have reported results that may help.
CC(C)[C@H]1CCCS1(=O)=NC#N (stereo partly shown); G (Inactive)
COC(=O)N=S1(=O)CCCC1Cc1ccc(Cl)nc1 (stereo not shown); G (Inactive)
N#CN=S1(=O)CCCC1c1ccccc1 (stereo not shown); G (Inactive)
CC(Cc1ccc(Cl)nc1)CS(C)(=O)=N[N+](=O)[O-] (stereo not shown); G (Inactive)
O=[N+]([O-])N=S1(=O)CCCC1Cc1ccc(Cl)nc1 (stereo not shown); F (Less than 50)
CC[S@@](=O)(C[C@@H](C)c1ccc(Cl)nc1)=NC#N; G (Inactive)

What FF 25: % mortality at 25 μg/cm2 against fruit fly in dietary tests value was documented for this compound, CS(=O)(Cc1ccc(Cl)nc1)=N[N+](=O)[O-] (stereo not shown) ?
F (Less than 50)
